Readings of apparent KD of MS2 coat protein for the listed sequences
Tested on: MS2 coat protein
Assay: apparent KD of MS2 coat protein; designed switch direction (-1 OFF switch, 1 ON switch): 1; higher = weaker reporter binding
Conditions: Eterna round: R95; input ligand: FMN 200 uM
Express it in nM; write the number only.

Use these answered entries as a reference point.
>>> value_reported("AGAGUGUAUCCACAGGAUAUGCGAGCUGACACAUGAGGAUCACCCAUGUAGUCCUAAAGGGCCAAGCAGAAGGGUGGUAAAGCUC [Oneson] (puzzle: Same State 2)")
17.5
>>> value_reported("GACUAUCUAUCUCAGGAUAUCAUGUCAAAGACAUGAGGAUCACCCAUGUACCAGGAAACUGGUUAUGAGAAGGGAGAUAGAUAGA [Mat - Same State 2 - Mod - D44] (puzzle: Same State 2)")
130

Now take the following sequence into account.
Ask: Find apparent KD of MS2 coat protein for AGUCCAGCCUGAGCUGGACAAAAGCAUGUACAUGAGGAUCACCCAUGUUCAUGUACAAGCUUUUUGCUCGUCUUAUC [salish99_208a_r3_058] (puzzle: Sensor for hsa-mir-208a) on MS2 coat protein and write it down.
Reply: 578
